test_system: SND1_F740W (Homo sapiens, UniProt Q7KZF4, F740W)
Construct: SND1 (aa 650–910); His (N, cleaved yes)
Sequence (Q7KZF4 650-910 F740W): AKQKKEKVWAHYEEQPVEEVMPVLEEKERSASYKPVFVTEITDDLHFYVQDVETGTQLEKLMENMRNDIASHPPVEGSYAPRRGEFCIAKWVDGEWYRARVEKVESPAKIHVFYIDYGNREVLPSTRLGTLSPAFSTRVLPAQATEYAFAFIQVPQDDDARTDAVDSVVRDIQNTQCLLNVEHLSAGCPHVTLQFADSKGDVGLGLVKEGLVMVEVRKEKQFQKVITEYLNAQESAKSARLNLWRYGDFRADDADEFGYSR
measurement_notes: ITC binding to SND1 mutant F740W
condition_details: Supplementary Fig. 11c, iTC-200; read-out: Kd, ITC binding curve, SND1_F740W
value_type: Kd (µM)
Numbers only, in µM.

Respond only with Kd recorded for Cn1c2c(c(=N)c3c1CCC3)CCC2 [Compound 1]
38

----------
test_system: SMNDC1 (Homo sapiens)
Sequence (O75940 53-130): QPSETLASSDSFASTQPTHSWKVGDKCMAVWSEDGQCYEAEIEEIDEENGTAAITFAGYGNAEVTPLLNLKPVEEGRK
value_type: Kd (µM)
Numbers only, in µM.

Tell us which Kd value is on record for Cn1c2c(c(=N)c3c1CCC3)CCC2
2.8
